- target.under.test: CGRP1 receptor (CRLR/RAMP1 complex) of human neuroblastoma SK-N-MC cells (human, UniProt Q16602 23-461; O60894 27-148)
- Sequence (Q16602 23-461, chain 1 of 2): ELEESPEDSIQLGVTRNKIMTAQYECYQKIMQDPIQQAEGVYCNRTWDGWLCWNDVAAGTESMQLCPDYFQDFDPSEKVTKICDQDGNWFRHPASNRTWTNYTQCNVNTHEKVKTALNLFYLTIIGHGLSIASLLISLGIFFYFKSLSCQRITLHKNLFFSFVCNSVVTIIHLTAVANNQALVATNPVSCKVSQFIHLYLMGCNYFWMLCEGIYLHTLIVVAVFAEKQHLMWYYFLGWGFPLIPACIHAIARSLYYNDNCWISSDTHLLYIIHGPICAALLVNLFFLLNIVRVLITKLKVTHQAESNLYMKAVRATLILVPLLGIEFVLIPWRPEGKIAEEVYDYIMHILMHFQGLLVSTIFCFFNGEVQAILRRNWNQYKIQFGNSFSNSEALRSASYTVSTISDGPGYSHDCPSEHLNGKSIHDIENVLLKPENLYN
- Sequence (O60894 27-148, chain 2 of 2): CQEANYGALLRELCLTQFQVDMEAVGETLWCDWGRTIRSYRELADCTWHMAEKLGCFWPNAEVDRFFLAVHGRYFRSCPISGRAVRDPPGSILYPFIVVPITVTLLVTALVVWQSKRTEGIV
- test.name: cell-based or functional assay
Square brackets hold non-standard residues; d marks the D form. hArg = N=C(N)NCCCC[C@H](N)C(=O)O; Cit = NC(=O)NCCC[C@H](N)C(=O)O
The following binders are listed with their measured PEG-peptide IC50 values.
# output: bare number, implied unit nM

Worked cases, answers included:
WVTHXLAGLLSXSGGVVXKNFVPTDVGPFAF (Ac-WVTH[Cit]LAGLLS[Cit]SGGVV[hArg]KNFVPTDVGPFAF-NH2; PEG-conjugated (Table 2C: in most cases at Lys^25)) [PEG-peptide of SEQ ID NO 871]
3.22
Ac-WVTH[Cit]LAGLLSQSGGVV[hArg]KNFVPTDVGPFAF-NH2 (also: PEG-conjugated, in most cases at Lys25) [PEG-peptide of SEQ ID NO 883]
7.42

Now look at this one.
(Q) Report PEG-peptide IC50, nothing else, for this binder: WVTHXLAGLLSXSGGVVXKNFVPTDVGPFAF (Ac-WVTH[Cit]LAGLLS[hArg]SGGVV[hArg]KNFVPTDVGPFAF-NH2; PEG-conjugated (Table 2C: in most cases at Lys^25)) [PEG-peptide of SEQ ID NO 880]
(A) 2.06
